Origin of the recorded values: ChEMBL document CHEMBL1135880

Consider the following molecules and their measured P50c readings.
Molecular target: Hemoglobin HbA (Homo sapiens) (UniProt P69905+P68871)
Sequence (P68871 2-147 partner limits assumed): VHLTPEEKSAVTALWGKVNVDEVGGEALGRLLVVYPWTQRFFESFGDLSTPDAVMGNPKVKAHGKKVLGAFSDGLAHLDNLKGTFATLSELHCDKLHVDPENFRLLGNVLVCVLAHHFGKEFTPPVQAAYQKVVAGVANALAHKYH
Sequence (P69905 2-142 limits assumed): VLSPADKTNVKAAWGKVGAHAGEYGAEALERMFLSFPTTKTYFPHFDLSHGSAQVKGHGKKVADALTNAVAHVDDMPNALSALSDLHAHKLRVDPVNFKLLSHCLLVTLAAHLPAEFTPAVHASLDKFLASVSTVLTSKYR
Experiment: Ability to right-shift the oxygen equilibrium curves (OECs) quantified by ability to increase in P50 in whole blood analyses.
Format: functional, tissue-based
Please reply with the bare figure in mmHg and do not write the unit itself.

For orientation, consider the following solved cases.
molecule: Cc1cc(C)cc(NC(=O)Cc2ccc(OC3(C(=O)N[C@H](CSCc4ccccc4)C(=O)O)CCCC3)cc2)c1
unit-info: mmHg
experimental-result: 24.8
--
molecule: Cc1cc(C)cc(NC(=O)Cc2ccc(OC3(C(=O)N[C@H](CO)C(=O)O)CCCC3)cc2)c1
unit-info: mmHg
experimental-result: 27.1
--
molecule: Cc1cc(C)cc(NC(=O)Cc2ccc(OC3(C(=O)N[C@@H](C(=O)O)C(C)O)CCCC3)cc2)c1 (some centres not stated)
unit-info: mmHg
experimental-result: 27.5

Lab note: next molecule to report on.
Lookup: Annotate the molecule Cc1cc(C)cc(NC(=O)Cc2ccc(OC3(C(=O)N[C@@H](Cc4ccccc4)C(=O)O)CCCC3)cc2)c1 with its measured P50c.
Found: 27.4

* * *

Target: Hemoglobin HbA (Homo sapiens) (UniProt P69905+P68871)
Assay: Oxygen pressure in mmHg at which Hb is 50% saturated with oxygen at 50-60 uM heme concentration and in the presence of 0.5 mM effector.
Assay type: functional
Where P50e equals or exceeds 20 mmHg, the correct label is yes (1); where it does not, the label is no (0).

Known results for molecules:
molecule: Cc1cc(C)cc(NC(=O)Cc2ccc(OC3(C(=O)N[C@H](CSCc4ccccc4)C(=O)O)CCCC3)cc2)c1
category-label: yes (1)
//
molecule: Cc1cc(C)cc(NC(=O)Cc2ccc(OC3(C(=O)N[C@@H](CCCCN)C(=O)O)CCCC3)cc2)c1
category-label: no (0)
//
molecule: Cc1cc(C)cc(NC(=O)Cc2ccc(OC3(C(=O)N[C@@H](CCCCNC(=O)OCc4ccccc4)C(=O)O)CCCC3)cc2)c1
category-label: yes (1)
//
molecule: Cc1cc(C)cc(NC(=O)Cc2ccc(OC3(C(=O)N[C@@H](C(=O)O)C(C)O)CCCC3)cc2)c1 (some centres not stated)
category-label: no (0)
//
molecule: Cc1cc(C)cc(NC(=O)Cc2ccc(OC3(C(=O)N[C@H](CC(C)C)C(=O)O)CCCC3)cc2)c1
category-label: no (0)

Lookup: hey, is P50e for this one >= 20 mmHg? Cc1cc(C)cc(NC(=O)Cc2ccc(OC3(C(=O)N[C@H](CCC(=O)O)C(=O)O)CCCC3)cc2)c1
Found: no (0)

Lookup: hey, is P50e for this one >= 20 mmHg? CC[C@@H](C)[C@@H](NC(=O)C1(Oc2ccc(CC(=O)Nc3cc(C)cc(C)c3)cc2)CCCC1)C(=O)O
Found: no (0)

Lookup: hey, is P50e for this one >= 20 mmHg? Cc1cc(C)cc(NC(=O)Cc2ccc(OC3(C(=O)N[C@H](Cc4ccc(O)cc4)C(=O)O)CCCC3)cc2)c1
Found: yes (1)

Lookup: hey, is P50e for this one >= 20 mmHg? Cc1cc(C)cc(NC(=O)Cc2ccc(OC3(C(=O)N[C@H](Cc4ccc5[nH]ccc5c4)C(=O)O)CCCC3)cc2)c1
Found: yes (1)

Lookup: hey, is P50e for this one >= 20 mmHg? Cc1cc(C)cc(NC(=O)Cc2ccc(OC3(C(=O)N[C@H](C(=O)O)C(C)C)CCCC3)cc2)c1
Found: no (0)

Lookup: hey, is P50e for this one >= 20 mmHg? Cc1cc(C)cc(NC(=O)Cc2ccc(OC3(C(=O)N[C@H](C)C(=O)O)CCCC3)cc2)c1
Found: no (0)

Lookup: hey, is P50e for this one >= 20 mmHg? Cc1cc(C)cc(NC(=O)Cc2ccc(OC3(C(=O)N[C@H](CCCCNC(=O)OCc4ccccc4)C(=O)O)CCCC3)cc2)c1
Found: yes (1)

Lookup: hey, is P50e for this one >= 20 mmHg? Cc1cc(C)cc(NC(=O)Cc2ccc(OC3(C(=O)N[C@@H](C)C(=O)O)CCCC3)cc2)c1
Found: no (0)

Lookup: hey, is P50e for this one >= 20 mmHg? Cc1cc(C)cc(NC(=O)Cc2ccc(OC3(C(=O)NCC(=O)O)CCCC3)cc2)c1
Found: no (0)

Lookup: hey, is P50e for this one >= 20 mmHg? Cc1cc(C)cc(NC(=O)Cc2ccc(OC3(C(=O)N[C@H](CC(=O)O)C(=O)O)CCCC3)cc2)c1
Found: no (0)

Lookup: hey, is P50e for this one >= 20 mmHg? CSCC[C@H](NC(=O)C1(Oc2ccc(CC(=O)Nc3cc(C)cc(C)c3)cc2)CCCC1)C(=O)O
Found: no (0)

Lookup: hey, is P50e for this one >= 20 mmHg? Cc1cc(C)cc(NC(=O)Cc2ccc(OC3(C(=O)N[C@H](CCCCN)C(=O)O)CCCC3)cc2)c1
Found: no (0)
